Test system: Bacillus spizizenii
Assay name: Antibacterial activity against Bacillus subtilis ATCC 6633 cultured in MH medium assessed as reduction in bacterial growth incubated for 48 hrs by microbroth dilution method
Type: functional
Reported conditions: ATCC 6633, 48 h
Attribute measured: MIC (µg/mL)
Express your answer in µg/mL, writing the number without its unit.

Examples from the recorded data:
C[C@@H]1CN(c2c(F)c(N)c3c(=O)c(C(=O)O)cn(C4CC4)c3c2F)C[C@H](C)[N+]12CN1C(=N2)C(C(=O)O)=Cc2ccccc21.[Cl-] (some centres not stated)	4
O=C(O)C1=Cc2ccccc2N2C[N+]3(CCN(c4cc5c(cc4F)c(=O)c(C(=O)O)cn5C4CC4)CC3)N=C12.[Cl-]	1
CC1=CC(C)=C(C(=O)O)C2=N[N+]3(CN12)[C@H](C)CN(c1c(F)c(N)c2c(=O)c(C(=O)O)cn(C4CC4)c2c1F)C[C@@H]3C.[Cl-] (some centres not stated)	2
CCn1cc(C(=O)O)c(=O)c2cc(F)c(N3CCNCC3)cc21	0.125
COc1c(N2CCNC(C)C2)c(F)cc2c(=O)c(C(=O)O)cn(C3CC3)c12 (configuration not stated)	0.032

Query block: What value of MIC has been recorded for this entry: CCn1cc(C(=O)O)c(=O)c2cc(F)c(N3CC[N+]4(CC3)CN3C(=N4)C(C(=O)O)=Cc4ccccc43)nc21.[Cl-]
Result block: 2

Query block: What value of MIC has been recorded for this entry: CCn1cc(C(=O)O)c(=O)c2cnc(N3CCNCC3)nc21
Result block: 2

====

Tested on: Staphylococcus aureus
Assay name: Bactericidal activity against methicillin resistant Staphylococcus aureus N315 cultured in MH medium assessed as reduction in bacterial survival incubated for 48 hrs by microbroth dilution method
Assay type: functional
Reported conditions: N315, 48 h
Attribute measured: MBC (µg/mL)
Express your answer in µg/mL, writing the number without its unit.

Examples from the recorded data:
CCn1cc(C(=O)O)c(=O)c2cc(F)c(N3CCNC(C)C3)c(F)c21 (stereo not given) [LOMEFLOXACIN]	1
CCn1cc(C(=O)O)c(=O)c2cc(F)c(N3CC[N+]4(CN5C(=N4)C(C(=O)O)=Cc4ccccc45)C(C)C3)c(F)c21.[Cl-] (stereo not given)	2
CCn1cc(C(=O)O)c(=O)c2cc(F)c(N3CCNCC3)nc21 [ENOXACIN]	1
COc1c(N2CC[N+]3(CN4C(C)=CC(C)=C(C(=O)O)C4=N3)C(C)C2)c(F)cc2c(=O)c(C(=O)O)cn(C3CC3)c12.[Cl-] (stereo not given)	8
C[C@@H]1CN(c2c(F)c(N)c3c(=O)c(C(=O)O)cn(C4CC4)c3c2F)C[C@H](C)N1 [SPARFLOXACIN]	0.125
COc1c(N2C[C@@H]3CCCN[C@@H]3C2)c(F)cc2c(=O)c(C(=O)O)cn(C3CC3)c12 [MOXIFLOXACIN]	0.25
CC1=CC(C)=C(C(=O)O)C2=N[N+]3(CCN(c4cc5c(cc4F)c(=O)c(C(=O)O)cn5C4CC4)CC3)CN12.[Cl-]	32
O=C(O)C1=Cc2ccccc2N2C[N+]3(CCN(c4cc5c(cc4F)c(=O)c(C(=O)O)cn5C4CC4)CC3)N=C12.[Cl-]	4

Query block: What value of MBC has been recorded for this entry: CCn1cc(C(=O)O)c(=O)c2cc(F)c(N3CC[N+]4(CC3)CN3C(C)=CC(C)=C(C(=O)O)C3=N4)cc21.[Cl-]
Result block: 128

Query block: What value of MBC has been recorded for this entry: CCn1cc(C(=O)O)c(=O)c2cc(F)c(N3CC[N+]4(CC3)CN3C(=N4)C(C(=O)O)=Cc4ccccc43)nc21.[Cl-]
Result block: 8

Query block: What value of MBC has been recorded for this entry: CC1=CC(C)=C(C(=O)O)C2=N[N+]3(CN12)[C@H](C)CN(c1c(F)c(N)c2c(=O)c(C(=O)O)cn(C4CC4)c2c1F)C[C@@H]3C.[Cl-] (stereo not given in full)
Result block: 8

Query block: What value of MBC has been recorded for this entry: CCn1cc(C(=O)O)c(=O)c2cnc(N3CCNCC3)nc21 [PIPEMIDIC ACID]
Result block: 32

====

Assay name: Lipophilicity, log k of the compound at 100 ug/ml by micellar electrokinetic chromatography
Assay type: physicochemical
Attribute measured: log K
API note: the answer field is a bare number with no unit suffix.

CCn1cc(C(=O)O)c(=O)c2cc(F)c(N3CCNCC3)cc21 [NORFLOXACIN]	0.1033
CCn1cc(C(=O)O)c(=O)c2cc(F)c(N3CC[N+]4(CN5C(C)=CC(C)=C(C(=O)O)C5=N4)C(C)C3)c(F)c21.[Cl-] (centres undefined)	-0.4791
CC1=CC(C)=C(C(=O)O)C2=N[N+]3(CN12)[C@H](C)CN(c1c(F)c(N)c2c(=O)c(C(=O)O)cn(C4CC4)c2c1F)C[C@@H]3C.[Cl-] (some centres undefined)	-0.2606
CCn1cc(C(=O)O)c(=O)c2cnc(N3CC[N+]4(CC3)CN3C(=N4)C(C(=O)O)=Cc4ccccc43)nc21.[Cl-]	-0.4434
CCn1cc(C(=O)O)c(=O)c2cnc(N3CCNCC3)nc21 [PIPEMIDIC ACID]	-0.1697

Consider the additional molecule presented here.
Query block: What value of log K has been recorded for this entry: O=C(O)C1=Cc2ccccc2N2C[N+]3(CCN(c4cc5c(cc4F)c(=O)c(C(=O)O)cn5C4CC4)CC3)N=C12.[Cl-]
Result block: -0.1527

====

Tested on: Streptococcus pneumoniae
Assay name: Bactericidal activity against Streptococcus pneumoniae cultured in MH medium assessed as reduction in bacterial survival incubated for 48 hrs by microbroth dilution method
Assay type: functional
# maps each entry to its MBC
Express your answer in µg/mL, writing the number without its unit.

C[C@@H]1CN(c2c(F)c(N)c3c(=O)c(C(=O)O)cn(C4CC4)c3c2F)C[C@H](C)N1	128
COc1c(N2CC[N+]3(CN4C(C)=CC(C)=C(C(=O)O)C4=N3)C(C)C2)c(F)cc2c(=O)c(C(=O)O)cn(C3CC3)c12.[Cl-] (configuration not stated)	256
COc1c(N2C[C@@H]3CCCN[C@@H]3C2)c(F)cc2c(=O)c(C(=O)O)cn(C3CC3)c12	64
COc1c(N2CCNC(C)C2)c(F)cc2c(=O)c(C(=O)O)cn(C3CC3)c12 (configuration not stated)	256
CCn1cc(C(=O)O)c(=O)c2cc(F)c(N3CC[N+]4(CC3)CN3C(=N4)C(C(=O)O)=Cc4ccccc43)nc21.[Cl-]	512

Query block: What value of MBC has been recorded for this entry: O=C(O)C1=Cc2ccccc2N2C[N+]3(CCN(c4cc5c(cc4F)c(=O)c(C(=O)O)cn5C4CC4)CC3)N=C12.[Cl-]
Result block: 512

Query block: What value of MBC has been recorded for this entry: COc1c(N2CC[N+]3(CN4C(=N3)C(C(=O)O)=Cc3ccccc34)C(C)C2)c(F)cc2c(=O)c(C(=O)O)cn(C3CC3)c12.[Cl-] (configuration not stated)
Result block: 256

Query block: What value of MBC has been recorded for this entry: CCn1cc(C(=O)O)c(=O)c2cc(F)c(N3CC[N+]4(CN5C(=N4)C(C(=O)O)=Cc4ccccc45)C(C)C3)c(F)c21.[Cl-] (configuration not stated)
Result block: 512

====

Test system: Staphylococcus aureus
Assay name: Bactericidal activity against Staphylococcus aureus ATCC 6538 cultured in MH medium assessed as reduction in bacterial survival incubated for 48 hrs by microbroth dilution method
Type: functional
Reported conditions: ATCC 6538, 48 h
# maps each entry to its MBC
Number first, unit second.

CCn1cc(C(=O)O)c(=O)c2cc(F)c(N3CCNCC3)nc21	1 µg/mL
C[C@@H]1CN(c2c(F)c(N)c3c(=O)c(C(=O)O)cn(C4CC4)c3c2F)C[C@H](C)[N+]12CN1C(=N2)C(C(=O)O)=Cc2ccccc21.[Cl-] (some centres undefined)	8 µg/mL
CC1=CC(C)=C(C(=O)O)C2=N[N+]3(CCN(c4cc5c(cc4F)c(=O)c(C(=O)O)cn5C4CC4)CC3)CN12.[Cl-]	128 µg/mL

Consider the additional molecule presented here.
Query block: What value of MBC has been recorded for this entry: CCn1cc(C(=O)O)c(=O)c2cc(F)c(N3CC[N+]4(CC3)CN3C(=N4)C(C(=O)O)=Cc4ccccc43)cc21.[Cl-]
Result block: 64 µg/mL

====

System: Staphylococcus aureus
Assay name: Bactericidal activity against Staphylococcus aureus ATCC 6538 cultured in MH medium assessed as reduction in bacterial survival incubated for 48 hrs by microbroth dilution method
Type: functional
Reported conditions: ATCC 6538, 48 h
Attribute measured: MBC (µg/mL)
Express your answer in µg/mL, writing the number without its unit.

Examples from the recorded data:
CCn1cc(C(=O)O)c(=O)c2cc(F)c(N3CC[N+]4(CN5C(=N4)C(C(=O)O)=Cc4ccccc45)C(C)C3)c(F)c21.[Cl-] (centres undefined)	2
CCn1cc(C(=O)O)c(=O)c2cc(F)c(N3CCNC(C)C3)c(F)c21 (centres undefined) [LOMEFLOXACIN]	1
COc1c(N2CC[N+]3(CN4C(=N3)C(C(=O)O)=Cc3ccccc34)C(C)C2)c(F)cc2c(=O)c(C(=O)O)cn(C3CC3)c12.[Cl-] (centres undefined)	16

Consider the additional molecule presented here.
Query block: # value lookup — system Staphylococcus aureus, readout MBC, item O=C(O)c1cn(C2CC2)c2cc(N3CCNCC3)c(F)cc2c1=O [CIPROFLOXACIN]
Result block: 0.5
